Molecular target: BirA bifunctional protein (Mycobacterium tuberculosis (strain CDC 1551 / Oshkosh))
Sequence (P96884 whole entry): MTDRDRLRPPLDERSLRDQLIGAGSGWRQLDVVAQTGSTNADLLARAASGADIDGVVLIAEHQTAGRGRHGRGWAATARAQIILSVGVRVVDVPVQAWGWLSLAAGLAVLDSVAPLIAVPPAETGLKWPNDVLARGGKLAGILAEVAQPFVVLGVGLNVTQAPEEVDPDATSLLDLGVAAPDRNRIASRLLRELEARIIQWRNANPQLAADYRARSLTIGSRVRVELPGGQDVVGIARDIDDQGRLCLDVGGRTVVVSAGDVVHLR
Assay: Inhibition of biotin binding to Mycobacterium tuberculosis BirA by isothermal titration calorimetry
observation type: pKd
For clarity, pKd is expressed as the negative log10 of concentration in mol/L.

> print(dat)
                                 mol.smiles  observation.type  observed
1  CC(C)(C)C#Cc1nc(N)c2ncn([C@@H]3O[C@H](COS(=O)(=O)NC(=O)CCCC[C@@H]4SC[C@@H]5NC(=O)N[C@@H]54)[C@@H](O)[C@H]3O)c2n1               pKd      7.96
2  Nc1nc2ccccc2c2c1ncn2[C@@H]1O[C@H](COS(=O)(=O)NC(=O)CCCC[C@@H]2SC[C@@H]3NC(=O)N[C@@H]32)[C@@H](O)[C@H]1O               pKd      9.64
3  Nc1ncnc2c1ncn2[C@@H]1O[C@H](CCS(=O)(=O)NC(=O)CCCC[C@@H]2SC[C@@H]3NC(=O)N[C@@H]32)[C@@H](O)[C@H]1O               pKd     10.00

Which measured pKd value corresponds to "Nc1nccc2c1ncn2[C@@H]1O[C@H](COS(=O)(=O)NC(=O)CCCC[C@@H]2SC[C@@H]3NC(=O)N[C@@H]32)[C@@H](O)[C@H]1O" ? 10.40

The reported measurements were obtained from ChEMBL document CHEMBL3102693.
